biological target: human GPR40 (Homo sapiens); construct: expressed in transfected cells; host or cells: HEK cells stably expressing the aequorin reporter; assay: Inositol Phosphate Turnover (IP1) Assay 2; format: cell-based; settings: HEK cells stably expressing human GPR40; 15,000 cells per well; compound acoustically transferred; CisBio IP-One kit
Sequence (O14842 whole entry): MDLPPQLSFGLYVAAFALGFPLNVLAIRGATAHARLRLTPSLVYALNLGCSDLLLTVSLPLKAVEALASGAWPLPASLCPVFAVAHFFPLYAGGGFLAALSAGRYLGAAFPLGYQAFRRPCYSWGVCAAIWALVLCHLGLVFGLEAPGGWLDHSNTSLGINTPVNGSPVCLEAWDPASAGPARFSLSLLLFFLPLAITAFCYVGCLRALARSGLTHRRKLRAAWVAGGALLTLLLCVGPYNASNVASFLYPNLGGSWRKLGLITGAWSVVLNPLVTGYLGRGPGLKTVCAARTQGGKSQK
MEASURE_NAME: EC50 (nM)

- COMPOUND: "COc1cc(-c2ccc(C3CCc4ccc([C@H](C5CC5)[C@H](C)C(=O)O)cc4O3)cc2CN2CCOC[C@@H]2C)c(F)cn1 (stereo partly drawn)"
  MEASURED_TARGET: "human GPR40 (Homo sapiens)"
  MEASUREMENT_UNITS: "nM"
  EC50: 1
- COMPOUND: "COc1cc(-c2ccc(C3CCc4ccc([C@H](C5CC5)[C@H](C)C(=O)O)cc4O3)cc2CN2C3CCC2CC(OC)C3)c(F)cn1 (stereo partly drawn)"
  MEASURED_TARGET: "human GPR40 (Homo sapiens)"
  MEASUREMENT_UNITS: "nM"
  EC50: 4.7
- COMPOUND: "COc1cc(-c2ccc(C3CCc4ccc([C@H](C5CC5)[C@H](C)C(=O)O)cc4O3)cc2CN2CC[C@H](S(C)(=O)=O)C2)c(F)cn1 (stereo partly drawn)"
  MEASURED_TARGET: "human GPR40 (Homo sapiens)"
  MEASUREMENT_UNITS: "nM"
  EC50: 227

(A) COc1cc(-c2ccc(C3CCc4ccc([C@H](C5CC5)[C@H](C)C(=O)O)cc4O3)cc2CN2CCC3(CCO3)C2)c(F)cn1 (stereo partly drawn)
(B) COc1cc(-c2ccc(C3CCc4ccc([C@H](C5CC5)[C@H](C)C(=O)O)cc4O3)cc2CN2CC(F)C2)c(F)cn1 (mixture of isomers)
(C) COc1cc(-c2ccc(C3CCc4ccc([C@H](C5CC5)[C@H](C)C(=O)O)cc4O3)cc2CN(C)CC(F)(F)F)c(F)cn1 (single isomer, unassigned) [Example 22]
Q: List the 3 entries from lowest EC50 to highest EC50 value. Kindly provide the labels arranged according to the requested ordering.
Ans: C, B, A
